Answer each item with its documented pIC50.
- assay_system: Orexin receptor type 2 (Homo sapiens)
- Sequence (O43614 whole entry): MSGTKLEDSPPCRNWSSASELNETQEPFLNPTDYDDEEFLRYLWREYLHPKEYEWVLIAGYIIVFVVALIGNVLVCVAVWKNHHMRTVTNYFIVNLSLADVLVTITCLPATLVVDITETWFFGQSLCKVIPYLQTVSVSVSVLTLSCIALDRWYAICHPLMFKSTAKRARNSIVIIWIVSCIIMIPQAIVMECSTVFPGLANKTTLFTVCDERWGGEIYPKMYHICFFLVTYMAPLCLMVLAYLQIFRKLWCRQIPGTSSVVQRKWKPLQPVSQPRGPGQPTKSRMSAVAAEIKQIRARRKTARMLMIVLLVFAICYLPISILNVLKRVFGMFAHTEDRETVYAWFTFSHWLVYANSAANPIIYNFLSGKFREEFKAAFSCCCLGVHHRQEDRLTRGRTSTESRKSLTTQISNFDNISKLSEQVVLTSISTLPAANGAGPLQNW
- assay_remarks: Antagonist activity at human OX2 receptor assessed as Ca2+ flux by FLIPR assay
- Format: functional
Give bare numbers, as −log10 of the molar value.

Cc1ccc(-n2nccn2)c(C(=O)N2C[C@H](C#Cc3ccc(F)cn3)CC[C@H]2C)c1: 7.62

Provide pIC50 for all items below, preserving their order.
1. Cc1ccc(-n2nccn2)c(C(=O)N2C[C@H](CCc3ccc(F)cn3)CC[C@H]2C)c1
2. Cc1ccc(-n2nccn2)c(C(=O)N2C[C@H](/C=C\c3ccc(F)cn3)CC[C@H]2C)c1
3. Cc1ccc(-n2nccn2)c(C(=O)N2C[C@H](C#Cc3cnccc3O)CC[C@H]2C)c1

Ans.
1. 6.84
2. 6.38
3. 7.28

For each of the molecules below, note its pIC50.
1. Cc1ccc(-n2nccn2)c(C(=O)N2C[C@H](C#Cc3ccccn3)CC[C@H]2C)c1
2. Cc1ccc(-n2nccn2)c(C(=O)N2C[C@H](/C=C/c3ccc(F)cn3)CC[C@H]2C)c1

Ans.
7.38
7.47
